Target: full length USP8 (Homo sapiens)
Assay: Ub-Rho hydrolysis, dose response
Format: biochemical
quantity-measured: IC50

Prompt: // query IC50 value for entry O=C(Nc1ccccc1)c1ccccc1O [salicylanilide backbone]
Completion: > 50 µM

====

Would you kindly list viability at 24 h, 25 µM for each of these molecules?
Test: in vitro
Parameters: species or system AtT-20
Details: mouse, att-20 cells, AtT-20 cell viability at 25µM, % of control
The figure you give is taken to be in %; do not add the unit.

Prompt: // query viability at 24 h, 25 µM value for entry O=C(NCc1cccc(OCc2ccccn2)c1)c1csc(Br)c1 [ZINC40111866]
Completion: 98.9

Prompt: // query viability at 24 h, 25 µM value for entry Cc1ccc(C(=O)c2cc(NC(=O)c3cc(I)cc(I)c3O)ccc2Cl)cc1 [ZINC72119086]
Completion: 109

Prompt: // query viability at 24 h, 25 µM value for entry O=C(Nc1cc(Cl)ccc1Cl)c1cc(I)cc(I)c1O [ZINC4014105]
Completion: 95.7

Prompt: // query viability at 24 h, 25 µM value for entry Cc1ccc(NC(=O)c2cc(I)cc(I)c2O)cc1 [ZINC4014108]
Completion: 93.5

Prompt: // query viability at 24 h, 25 µM value for entry O=C(Nc1ccc(Cl)cc1)c1cc(I)cc(I)c1O [ZINC4014104]
Completion: 58.8

Prompt: // query viability at 24 h, 25 µM value for entry O=C(Nc1cc(Cl)cc(Cl)c1)c1cc(I)cc(I)c1O [ZINC4014253]
Completion: 68

Prompt: // query viability at 24 h, 25 µM value for entry O=C(CSc1ccccc1F)Nc1cccc(OCc2ccccn2)c1 [ZINC32922917]
Completion: 101

Prompt: // query viability at 24 h, 25 µM value for entry O=C(Nc1ccc(Cl)cc1Cl)c1cc(I)cc(I)c1O [ZINC4181894]
Completion: 89.6

Prompt: // query viability at 24 h, 25 µM value for entry O=C(Nc1ccc(Oc2ccc(Cl)cc2)c(Cl)c1)c1cc(I)cc(I)c1O [Rafoxanide]
Completion: 56.2

====

Assay: in vitro
Conditions: mouse, att-20 cells
Would you kindly list viability at 24 h, 25 µM for each of these compounds?

Prompt: // query viability at 24 h, 25 µM value for entry O=C(Nc1cc(Cl)cc(Cl)c1O)c1c(O)c(Cl)cc(Cl)c1Cl [Oxyclozanide]
Completion: 98.1%

Prompt: // query viability at 24 h, 25 µM value for entry CC(=O)Oc1c(I)cc(I)cc1C(=O)Nc1ccc(Cl)cc1 [Clioxanide]
Completion: 94.2%

====

Target: full length USP8 (Homo sapiens)
Sequence (P40818 1-1118): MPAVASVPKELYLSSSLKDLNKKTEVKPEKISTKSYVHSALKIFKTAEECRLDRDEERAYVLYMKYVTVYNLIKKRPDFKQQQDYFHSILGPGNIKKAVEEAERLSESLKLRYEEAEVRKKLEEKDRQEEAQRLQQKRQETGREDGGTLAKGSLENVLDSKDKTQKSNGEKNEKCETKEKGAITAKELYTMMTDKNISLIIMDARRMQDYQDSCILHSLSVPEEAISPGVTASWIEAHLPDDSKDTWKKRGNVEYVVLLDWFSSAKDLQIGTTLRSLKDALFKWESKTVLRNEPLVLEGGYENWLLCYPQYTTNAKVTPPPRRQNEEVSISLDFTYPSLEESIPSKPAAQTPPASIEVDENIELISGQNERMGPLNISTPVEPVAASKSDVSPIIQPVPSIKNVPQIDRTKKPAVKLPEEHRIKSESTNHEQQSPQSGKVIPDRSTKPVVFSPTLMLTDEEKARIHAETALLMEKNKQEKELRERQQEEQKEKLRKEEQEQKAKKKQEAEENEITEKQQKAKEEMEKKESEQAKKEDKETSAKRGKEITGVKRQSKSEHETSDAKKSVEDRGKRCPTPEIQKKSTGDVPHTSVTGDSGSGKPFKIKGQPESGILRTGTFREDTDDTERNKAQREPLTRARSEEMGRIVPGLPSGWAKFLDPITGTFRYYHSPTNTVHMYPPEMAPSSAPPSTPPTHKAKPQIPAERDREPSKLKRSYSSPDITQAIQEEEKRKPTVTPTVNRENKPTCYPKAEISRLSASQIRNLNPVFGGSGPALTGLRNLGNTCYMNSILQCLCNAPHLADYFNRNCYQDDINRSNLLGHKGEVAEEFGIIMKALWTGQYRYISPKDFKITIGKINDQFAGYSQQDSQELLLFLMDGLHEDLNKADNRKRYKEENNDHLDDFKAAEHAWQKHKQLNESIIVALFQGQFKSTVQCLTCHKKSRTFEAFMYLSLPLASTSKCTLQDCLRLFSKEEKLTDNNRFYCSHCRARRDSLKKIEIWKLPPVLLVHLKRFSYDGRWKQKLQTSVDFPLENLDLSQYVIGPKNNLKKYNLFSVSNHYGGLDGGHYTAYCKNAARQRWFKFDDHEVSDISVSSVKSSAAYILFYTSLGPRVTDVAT
Experiment: Ub-Rho hydrolysis, dose response
Assay type: biochemical
Details: 0.1 µM Ub-Rho
quantity-measured: IC50 (µM)
The figure you give is taken to be in µM; do not add the unit.

Prompt: // query IC50 value for entry O=C(Nc1ccc(Cl)cc1)c1cc(I)cc(I)c1O [ZINC4014104]
Completion: 11.9

Prompt: // query IC50 value for entry Cc1ccc(NC(=O)c2cc(I)cc(I)c2O)cc1 [ZINC4014108]
Completion: 14.6

Origin of the recorded values: paper doi:10.1101/2025.02.26.640120v1
